growth inhibition by drug alone values by entry
Tested on: U-2932
experimentDescription: growth inhibition by drug alone (1 - RLU/untreated control) (fraction); higher = stronger inhibition
conditionInfo: 1000 nM; time (day): 4; 177Lu-lilotomab satetraxetan 0 ug/ml
Counter-ions that a name gives are not always drawn.

Short answer please: growth inhibition by drug alone, U-2932, entry CCN(CC)CCNC(=O)c1c(C)[nH]c(/C=C2\C(=O)Nc3ccc(F)cc32)c1C [Sunitinib Malate (Sutent)] -0.00484

Short answer please: growth inhibition by drug alone, U-2932, entry CC(C)(C)c1[nH]cnc1/C=c1\[nH]c(=O)/c(=C/c2ccccc2)[nH]c1=O 0.971

Short answer please: growth inhibition by drug alone, U-2932, entry COc1cccc2c1C(=O)c1c(O)c3c(c(O)c1C2=O)C[C@@](O)(C(C)=O)C[C@@H]3O[C@H]1C[C@H](N)[C@H](O)[C@H](C)O1 [Daunorubicin HCl (Daunomycin HCl)] 0.975

====

System: RIVA
experimentDescription: growth inhibition by drug alone (1 - RLU/untreated control) (fraction); higher = stronger inhibition
conditionInfo: 100 nM; time (day): 4; 177Lu-lilotomab satetraxetan 0 ug/ml
measureName: growth inhibition by drug alone
Keep the answer to the number alone.

molecule | measurementTarget | measureName | quantitativeReadout
COc1cc2nccc(Oc3ccc(NC(=O)Nc4cc(C)on4)c(Cl)c3)c2cc1OC | RIVA | growth inhibition by drug alone | 0.104

Short answer please: growth inhibition by drug alone, RIVA, entry Nc1nc(Cl)nc2c1ncn2[C@H]1C[C@H](O)[C@@H](CO)O1 0.239

Short answer please: growth inhibition by drug alone, RIVA, entry N#Cc1c(O)c2c(-c3ccc(-c4ccccc4O)cc3)csc2[nH]c1=O -0.357

====

Tested on: RIVA
experimentDescription: growth inhibition by drug alone (1 - RLU/untreated control) (fraction); higher = stronger inhibition
conditionInfo: 100 nM; time (day): 4; 177Lu-lilotomab satetraxetan 0 ug/ml
Where a name gives a salt, the structure may show the parent alone.
growth inhibition by drug alone values by entry
Keep the answer to the number alone.

compound | measurementTarget | measureName | quantitativeReadout
NC(=O)Nc1cc(-c2cccc(F)c2)sc1C(=O)N[C@H]1CCCNC1 | RIVA | growth inhibition by drug alone | 0.0623
CN(C)c1nc(N(C)C)nc(N(C)C)n1 [Altretamine (Hexalen)] | RIVA | growth inhibition by drug alone | -0.424

May I ask what growth inhibition by drug alone has been recorded for CCCCc1nc2cc(/C=C/C(=O)NO)ccc2n1CCN(CC)CC [SB939 (Pracinostat)] ? 0.435

May I ask what growth inhibition by drug alone has been recorded for CN1CCN(c2ccc3nc(-c4c(N)c5c(F)cccc5[nH]c4=O)[nH]c3c2)CC1 [Dovitinib (TKI-258)] ? -0.0867

May I ask what growth inhibition by drug alone has been recorded for COC1=CC(c2cc3ccccc3[nH]2)=N/C1=C\c1[nH]c(C)cc1C [Obatoclax mesylate (GX15-070)] ? -0.248

May I ask what growth inhibition by drug alone has been recorded for c1ccc2c(CCNc3ccc(Nc4ccncc4)cc3)c[nH]c2c1 ? -0.135

May I ask what growth inhibition by drug alone has been recorded for CC1=C(/C=C/C(C)=C/C=C/C(C)=C/C(=O)Nc2ccc(O)cc2)C(C)(C)CCC1 [Fenretinide] ? -0.302

May I ask what growth inhibition by drug alone has been recorded for O=C1c2ccccc2C(=O)c2c(NCCc3ccc(O)cc3)ccc(NCCc3ccc(O)cc3)c21 ? -0.807

May I ask what growth inhibition by drug alone has been recorded for CC(C)[C@H](C(=O)Nc1ccc(C(=O)NO)cc1)c1ccccc1 ? 0.907
